molecules and their reported GI50
Test system: HCC 2998
MEASUREMENT_DESCRIPTION: NCI tumour cell line growth inhibition, 48 h
The source made the active and inactive calls. Cut-off read from the data, not from the text of the source: active = GI50 up to about 1.1 µM and inactive = higher.

Answered cases to consult:
INSERT INTO results (molecule, tgt, observed_property, test_value) VALUES
  ('c1ccc2c(-c3ccnc(-c4c[nH]c5ccccc45)n3)c[nH]c2c1', 'HCC 2998', 'GI50', '2.79 µM (inactive)'),
  ('O=c1oc2ccccc2cc1-c1nc2ccccc2s1', 'HCC 2998', 'GI50', '37.2 µM (inactive)'),
  ('C/C(=N/NC(=S)Nc1cccc(C)c1)c1ccccn1', 'HCC 2998', 'GI50', '1.91 µM (inactive)'),
  ('CC12CCC(=O)C=C1CCC1C2C(O)CC2(C)C(c3csc(N)n3)CCC12.O=S(=O)(O)c1ccc(Br)cc1 (stereo not given)', 'HCC 2998', 'GI50', '> 100 µM (inactive)');

Using the record for CCOCc1cc(=O)c2cc3c(cc2o1)OC(C)(C)CC3 , report its GI50.
> 100 µM (inactive)

Ok, now Cn1c([C@H](C#N)c2ncccc2[N+](=O)[O-])nc2ccccc21
> 100 µM (inactive)

Ok, now C=C[C@]1(C)CCC2=C(CCC3C2(C)CCC[C@@]3(C)COC(C)=O)C1 (stereo not given in full)
17.7 µM (inactive)

Ok, now O=C(CSc1nnc(SCC(=O)NN=C2CCCCC2)s1)NN=C1CCCCC1
> 100 µM (inactive)

Ok, now Cc1nnc(N)nc1C/C=C/C(C)Sc1ccc(Cl)cc1 (stereo not given)
14.4 µM (inactive)

Ok, now CC1=CC(=O)CC(C)(C)C1/C=C/C(C)=C/C=C/C(C)=C/C=C/C=C(C)/C=C/C=C(C)/C=C/C1C(C)=CC(=O)CC1(C)C (stereo not given)
53.1 µM (inactive)

###

Tested on: SK-MEL-2
MEASUREMENT_DESCRIPTION: NCI tumour cell line growth inhibition, 48 h
The source made the active and inactive calls. No stated cut-off is given here; in the data, active = GI50 up to about 1.1 µM and inactive = higher.
molecules and their reported GI50

Answered cases to consult:
INSERT INTO measurements (molecule, tgt, test_value) VALUES
  ('C=C1CN=C(Nc2ccc(F)cc2F)S1', 'SK-MEL-2', '> 100 µM (inactive)'),
  ('CC(C)(C)c1ccc2c(c1)OP1(Oc3cccc4cccnc34)(O2)Oc2ccc(C(C)(C)C)cc2O1', 'SK-MEL-2', '7.85 µM (inactive)'),
  ('O=C1c2ccccc2NC1(c1ccccc1)c1c(-c2ccccc2)[nH]c2ccccc12 (stereo not given)', 'SK-MEL-2', '11.9 µM (inactive)'),
  ('CC(Oc1ccc(Cl)cc1Cl)C(=O)NN1C(=O)CC(=O)NC1=S (stereo not given)', 'SK-MEL-2', '80.5 µM (inactive)');

Now consider a different molecule.
Using the record for CC(=N\N=C\c1ccccn1)/C(C)=N/N=C(C)/C(C)=N/N=C/c1ccccn1 , report its GI50.
> 100 µM (inactive)

###

Test system: M14
MEASUREMENT_DESCRIPTION: NCI tumour cell line growth inhibition, 48 h
Calls of active or inactive are those of the source. Cut-off read from the data, not from the text of the source: active = GI50 up to about 1.1 µM and inactive = higher.
The reply should be one of these categories: yes (1) (active), no (0) (inactive)

Some solved cases for reference:
INSERT INTO measurements (compound, assigned_label) VALUES
  ('Nc1nc(SCCc2ccccc2)nc2nc3c(c(-c4ccccc4)c12)CCCC3', 'no (0)'),
  ('COc1ccc(NC(=O)CC(=O)NN2C(=O)/C(=C/c3ccc(N(CCC#N)CCC#N)cc3C)N=C2/C=C\c2ccccc2)cc1', 'no (0)'),
  ('O=C(NCP(=O)(c1ccccc1)c1ccccc1)OCc1ccccc1', 'no (0)'),
  ('COc1ccc(OC)c(-c2cc(=O)c3c(OC)c(OC)c(OC)c(OC)c3o2)c1', 'no (0)'),
  ('Cc1c(Cl)ccc2c1NC(=O)C2(O)CC(=O)c1ccc(Cl)cc1 (stereo unspecified)', 'no (0)');

Please indicate how the test categorized CC1(C)OCC(C2OC(=O)C(OCc3ccccc3)=C2OCc2ccccc2)O1 (stereo unspecified) .
no (0)

Ok, now Cn1nc(-c2ccccc2)c2c(/C=C/c3ccccc3)onc2c1=O
no (0)

Ok, now Cc1c(C)c(S(=O)(=O)N(CCCCCON)OCCCN)c(C)c2c1OC(C)(C)CC2
no (0)

Ok, now COc1ccc(/C(=N/N=c2\[nH]c3ccccc3n2Cc2ccccc2)C(=O)O)cc1
no (0)

Ok, now COC(C[C@H]1CCCC[C@]1(O)/C(=C\CO[Si](C(C)C)(C(C)C)C(C)C)Sc1ccccc1)OC
no (0)

Ok, now COc1ccc(NC(=S)N/N=C(\c2ccccc2)c2ccccn2)cc1
yes (1)

Ok, now Oc1[nH]c(Nc2cccc(CC(F)(F)F)c2)nc2ncnc1-2
no (0)

Ok, now Cn1c(=S)sc2nc3ccccc3n2c1=S
no (0)

Ok, now COc1ccc(OC)c(NC(=O)CCC/C(CC(=O)c2ccc(O)c(OC)c2)=N\Nc2nnc(C)n2N)c1
no (0)

Ok, now COc1cc(C2=NN(C)C(c3ccc([N+](=O)[O-])o3)C2)cc(OC)c1OC (stereo unspecified)
no (0)

Ok, now O=C(O)c1nc(-c2ccccn2)c(-c2ccccn2)nc1C(=O)O
no (0)

Ok, now COCN(C)c1nc(N(C)C)nc(N(C)C)n1
no (0)

Ok, now COC(=O)C(Cc1ccccc1)OC(=O)C(N)CC(=O)O (stereo unspecified)
no (0)

Ok, now CC1(C)CC2=C(Sc3ccccc3N2)C(=O)C1C(=O)C(=O)Nc1cc(Cl)ccc1Cl (stereo unspecified)
no (0)

Ok, now COc1ccc(N/N=C(\CCN(C)C)c2ccccc2)cc1
no (0)

Ok, now COc1nc(NC2OCC(O)C(O)C2O)c(NC2OCC(O)C(O)C2O)c(=O)n1C (stereo unspecified)
no (0)

Values compiled from ChEMBL document CHEMBL1201862.
